PBM binding z-score overview
Test system: PPARa:RXRa (NR concentration 270 nM, RXRa partner concentration 90 nM)
assaySummary: PBM binding z-score (relative to random genomic background probes); higher = stronger binding; sequences stand for … in GC…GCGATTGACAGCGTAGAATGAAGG
readoutName: PBM binding z-score

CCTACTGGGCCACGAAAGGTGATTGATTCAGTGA | 1.75
ATTTGTAGGTTATCGGGTCATTCAGTTTGCGCAT | 4.47
ATATGGAGGTTAGCTGGGGTCATTCAGACTAGGC | 5.04
CGGACTGGGGCAAAGGTTACCATACTCAGTACGA | 6.02
CTATATAGGTTAAGGGGGTCATTCAGTTTGAAAG | 6.33
